Listing of entries alongside the reported % Inhibition.
Tested on: Plasmodium falciparum
PROTOCOL DETAILS: Primary screen in NF54 nanoGlo assay, in single point, at 2uM, 72h
Assay type: functional, Erythrocyte
CONDITION PARAMETERS: timepoint 72 hour
The campaign covered roughly 150,000 compounds. About 540 (0.36%) showed an effect of 50% or more. This is one part of a sample in which strong results are shown more often than they occur.
State just the number; it will be interpreted in %.

Record excerpt, results attached:
                                smiles_data      quantity  number
0  O=S(=O)(c1ccc(F)c(Cl)c1)N1CC[C@H](Oc2ccncc2Cl)C1  % Inhibition      72
1  CCn1ncc(C(CC(=O)c2ccccc2)CC(=O)c2ccccc2)c1C  % Inhibition      -8
2  O=C(Nc1ccc(N2CCOCC2)cc1)[C@H]1CCN(c2cn[nH]c(=O)c2)C1  % Inhibition     -14
3  Cc1ccc(S(=O)(=O)NCCn2c3ccccc3c3c(C)cc(C)nc32)cc1  % Inhibition      -5
4  C[C@@H](c1ccccc1)n1c(NC(=O)c2ccc(Cl)cc2)c(S(=O)(=O)c2ccccc2)c2nc3ccccc3nc21  % Inhibition     -15
5  O=S(=O)(c1cccnc1)N1CC[C@H](Oc2ccncc2Cl)C1  % Inhibition      -6
6  CCCCn1c(NC(=O)c2ccccc2)c(S(=O)(=O)c2ccc(C)cc2)c2nc3ccccc3nc21  % Inhibition       0
7  CC1(C)C[C@@H](NC(=O)[C@H]2CC[C@H](Cn3cnc4ccccc4c3=O)CC2)CCO1  % Inhibition      -6

Proceed to the following item.
input: For the compound shown here, COCCCn1c(NS(=O)(=O)c2ccccc2)c(S(=O)(=O)c2ccc(C)cc2)c2nc3ccccc3nc21 , give the reported % Inhibition.
output: 43
